protein stability index listing for selected variants.
B1: C22orf31 (parent)
chain: YSLELGKAIKQKLWEALCSQGAIS

Variants of: B1
test name: protein stability index of a GFP-peptide fusion (GPS, HEK-293T) (PSI 1-6); higher = more stable;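 further: lentivirally expressed fusions sorted by FACS into six bins by GFP to DsRed ratio, PSI derived from sequencing read proportions per bin multiplied by bin number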
run parameters: c terminus: a fixed tail appended
// keep it numeric: no unit symbol after the value

# annotated cases, reported protein stability index shown
{"mutation spec": "L5E", "recorded result": 2.21}
{"mutation spec": "I9Y", "recorded result": 3.02}
{"mutation spec": "K10M", "recorded result": 2.22}

Task: Which value of protein stability index has been reported for "L13S" in the records?
Result: 2.24

Task: Query "W14T" next
Result: 1.98
